FYI, the data here is from patent US9914731B2.

assay.system: recombinant human baculovirus-expressed cMET (Homo sapiens (Human))
Sequence (P08581 25-1390): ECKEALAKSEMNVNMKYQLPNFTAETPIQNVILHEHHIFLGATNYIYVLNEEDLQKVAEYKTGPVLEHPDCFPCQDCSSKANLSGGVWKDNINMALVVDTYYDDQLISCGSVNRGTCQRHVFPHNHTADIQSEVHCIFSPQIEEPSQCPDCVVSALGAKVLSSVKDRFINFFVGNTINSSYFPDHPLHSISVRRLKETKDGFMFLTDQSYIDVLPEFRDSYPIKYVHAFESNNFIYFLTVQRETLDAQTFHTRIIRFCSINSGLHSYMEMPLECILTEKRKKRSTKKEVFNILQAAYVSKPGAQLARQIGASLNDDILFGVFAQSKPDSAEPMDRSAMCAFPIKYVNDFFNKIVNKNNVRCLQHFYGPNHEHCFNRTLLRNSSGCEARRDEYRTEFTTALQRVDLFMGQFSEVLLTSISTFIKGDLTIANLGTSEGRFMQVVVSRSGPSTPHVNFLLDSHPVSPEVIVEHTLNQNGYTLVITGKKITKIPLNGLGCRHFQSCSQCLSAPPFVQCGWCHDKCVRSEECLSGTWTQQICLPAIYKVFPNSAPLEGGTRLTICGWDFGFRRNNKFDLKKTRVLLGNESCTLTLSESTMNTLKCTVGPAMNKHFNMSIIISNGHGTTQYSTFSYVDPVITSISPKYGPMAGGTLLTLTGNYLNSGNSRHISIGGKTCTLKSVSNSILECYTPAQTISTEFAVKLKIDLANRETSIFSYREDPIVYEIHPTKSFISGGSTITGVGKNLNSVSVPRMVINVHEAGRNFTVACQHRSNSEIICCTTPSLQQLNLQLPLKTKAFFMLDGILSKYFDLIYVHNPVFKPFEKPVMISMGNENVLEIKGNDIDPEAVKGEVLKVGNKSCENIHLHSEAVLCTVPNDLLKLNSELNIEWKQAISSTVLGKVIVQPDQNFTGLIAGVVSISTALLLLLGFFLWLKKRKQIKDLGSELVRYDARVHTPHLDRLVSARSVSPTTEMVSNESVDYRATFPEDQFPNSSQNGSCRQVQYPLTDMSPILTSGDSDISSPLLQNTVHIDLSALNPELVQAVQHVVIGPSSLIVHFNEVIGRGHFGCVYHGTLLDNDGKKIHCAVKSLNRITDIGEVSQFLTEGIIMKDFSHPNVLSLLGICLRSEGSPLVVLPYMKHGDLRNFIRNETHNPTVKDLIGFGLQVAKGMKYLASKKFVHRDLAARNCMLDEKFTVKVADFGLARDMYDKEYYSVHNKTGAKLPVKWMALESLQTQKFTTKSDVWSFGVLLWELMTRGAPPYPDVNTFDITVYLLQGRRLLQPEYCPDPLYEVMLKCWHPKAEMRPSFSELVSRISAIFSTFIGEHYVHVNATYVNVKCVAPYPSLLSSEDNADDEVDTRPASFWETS
test.name: c-MET kinase assay (HTRF KinEASE)
Assay type: biochemical
stated.conditions: average of two or more determinations; read-out: c-MET IC50
measured.parameter: IC50

1) CC(C)n1cc(C(=O)Nc2ccc(Oc3cc(-c4ncccn4)cn4nccc34)c(F)c2)c(=O)n(-c2ccc(F)cc2)c1=O ... 10 to 100 nM
2) Cn1cnc(-c2cc(Oc3ccc(NC(=O)c4c[nH]c(=O)n(-c5ccc(F)cc5)c4=O)cc3F)c3ccnn3c2)c1 ... < 10 nM
3) CCn1cc(C(=O)Nc2ccc(Oc3cc(-c4cn(C)cn4)cn4nccc34)c(C(F)(F)F)c2)c(=O)n(-c2ccc(F)cc2)c1=O ... < 10 nM
4) CC(C)n1cc(C(=O)Nc2ccc(Oc3cc(-c4cn(C)cn4)cn4nccc34)c(OCc3ccccc3)c2)c(=O)n(-c2ccc(F)cc2)c1=O ... 10 to 100 nM
5) O=C(Nc1ccc(Oc2cccn3nccc23)c(F)c1)c1cccn(-c2ccc(F)cc2)c1=O ... < 10 nM
6) O=C(Nc1ccc(Oc2cc(N3CCC4(CC3)OCCO4)cn3nccc23)c(F)c1)c1cccn(-c2ccc(F)cc2)c1=O ... 10 to 100 nM
7) Cn1ccnc1-c1cc(Oc2ccc(NC(=O)c3cccn(-c4ccc(F)cc4)c3=O)cc2F)c2ccnn2c1 ... < 10 nM

---

assay.system: recombinant human baculovirus-expressed cMET (Homo sapiens (Human))
test.name: c-MET kinase assay (HTRF KinEASE)
Format: biochemical
stated.conditions: average of two or more determinations; read-out: c-MET IC50
pIC50: −log10 of the molar value.
measured.parameter: pIC50

1. CN1CCN(c2ccc(-c3cc(Oc4ccc(NC(=O)c5cccn(-c6ccc(F)cc6)c5=O)cc4F)c4ccnn4c3)cn2)CC1 [Example 37] ... > 8.00
2. CCn1cc(C(=O)Nc2ccc(Oc3cc(C(=O)N(C)C)cn4nccc34)c(F)c2)c(=O)n(-c2ccc(F)cc2)c1=O [Example 139] ... > 8.00
3. O=C(Cc1ccc(F)cc1)NC(=S)Nc1ccc(Oc2cccn3nccc23)c(F)c1 [Example 6] ... 7.00 to 8.00
4. CC(C)n1nc(C(=O)Nc2ccc(Oc3cc(-c4cn(C)cn4)cn4nccc34)c(F)c2)c(=O)n(-c2ccc(F)cc2)c1=O [Example 129] ... > 8.00
5. Cc1ccc(C(=O)Nc2ccc(Oc3cc(Br)cn4nccc34)c(F)c2)c(=O)n1-c1ccc(F)cc1 [Example 157] ... 7.00 to 8.00
6. CCn1cc(C(=O)Nc2ccc(Oc3cc(-c4cn(C)cn4)cn4nccc34)c(C)c2)c(=O)n(-c2ccc(F)cc2)c1=O [Example 109] ... > 8.00
7. O=C(Nc1ccc(Oc2cc(N3CCCC3=O)cn3nccc23)c(F)c1)c1cccn(-c2ccc(F)cc2)c1=O [Example 76] ... > 8.00
8. CCn1cc(C(=O)Nc2ccc(Oc3cc(-c4cnccn4)cn4nccc34)c(F)c2)c(=O)n(-c2ccc(F)cc2)c1=O [Example 134] ... 7.00 to 8.00
9. CCOc1ccn(-c2ccc(F)cc2)c(=O)c1C(=O)Nc1ccc(Oc2cc(-c3cn(C)cn3)cn3nccc23)c(F)c1 [Example 112] ... > 8.00
10. Cc1[nH]ncc1-c1cc(Oc2ccc(NC(=O)c3cccn(-c4ccc(F)cc4)c3=O)cc2F)c2ccnn2c1 [Example 44] ... > 8.00
11. O=C(Nc1ccc(Oc2cc(-c3cnsc3)cn3nccc23)c(F)c1)c1cccn(-c2ccc(F)cc2)c1=O [Example 53] ... > 8.00
12. Cn1nccc1-c1cc(Oc2ccc(NC(=O)c3cccn(-c4ccc(F)cc4)c3=O)cc2F)c2ccnn2c1 [Example 41] ... > 8.00
13. CCn1cc(C(=O)Nc2ccc(Oc3cc(-c4cn(C)cn4)cn4nccc34)c(OCc3ccccc3)c2)c(=O)n(-c2ccc(F)cc2)c1=O [Example 119] ... 7.00 to 8.00
14. O=C(Nc1ccc(F)cc1)C1(C(=O)Nc2ccc(Oc3cccn4nccc34)c(F)c2)CC1 [Example 5] ... > 8.00
15. O=C(Nc1ccc(Oc2cc(-c3cncs3)cn3nccc23)c(F)c1)c1cccn(-c2ccc(F)cc2)c1=O [Example 105] ... > 8.00
16. O=C(Nc1ccc(Oc2cccn3nccc23)c(F)c1)c1c(I)ccn(-c2ccc(F)cc2)c1=O [Example 12] ... 7.00 to 8.00
17. O=C(Nc1ccc(Oc2cccn3nccc23)c(F)c1)c1cccn(Cc2cccc(F)c2)c1=O [Example 9] ... 6.00 to 7.00
18. Cc1noc(C)c1-c1cc(Oc2ccc(NC(=O)c3cccn(-c4ccc(F)cc4)c3=O)cc2F)c2ccnn2c1 [Example 48] ... > 8.00
19. O=C(Nc1ccc(Oc2cc(N3CCCC3)cn3nccc23)c(F)c1)c1cccn(-c2ccc(F)cc2)c1=O [Example 75] ... > 8.00
20. Cc1ccc(C(=O)Nc2ccc(Oc3cc(-c4cn(C)cn4)cn4nccc34)c(F)c2)c(=O)n1-c1ccc(F)cc1 [Example 91] ... > 8.00
21. O=C(Nc1ccc(Oc2cccn3nccc23)cc1)c1cnn(-c2ccccc2)c1C(F)(F)F [Example 19] ... 5.00 to 6.00
22. Cc1ccc(C(=O)Nc2ccc(Oc3cc(N4CCC(=O)CC4)cn4nccc34)c(F)c2)c(=O)n1-c1ccc(F)cc1 [Example 59] ... 7.00 to 8.00
23. CCOCCn1cc(C(=O)Nc2ccc(Oc3cc(N4CCOCC4)cn4nccc34)c(F)c2)c(=O)n(-c2ccc(F)cc2)c1=O [Example 58] ... 7.00 to 8.00
24. CC(C)n1cc(C(=O)Nc2ccc(Oc3cc(N4CCOCC4)cn4nccc34)c(F)c2)c(=O)n(-c2ccc(F)cc2)c1=O [Example 62] ... > 8.00
25. O=C(Nc1ccc(Oc2cc(N3CCS(=O)(=O)CC3)cn3nccc23)c(F)c1)c1cccn(-c2ccc(F)cc2)c1=O [Example 72] ... 7.00 to 8.00
26. O=C(Nc1ccc(Oc2cc(Nc3ccccc3)cn3nccc23)c(F)c1)c1cccn(-c2ccc(F)cc2)c1=O [Example 80] ... > 8.00
27. CC(C)n1cc(C(=O)Nc2ccc(Oc3cc(-c4cn(C)cn4)cn4nccc34)c(F)c2)c(=O)n(-c2ccc(F)cc2)c1=O [Example 94] ... > 8.00
28. CC(C)n1cc(C(=O)Nc2ccc(Oc3cc(C(=O)N(C)C)cn4nccc34)c(F)c2)c(=O)n(-c2ccc(F)cc2)c1=O [Example 138] ... > 8.00
